Molecular target: T1, G4P (artificial (RSM derived from human …))
T1 chain: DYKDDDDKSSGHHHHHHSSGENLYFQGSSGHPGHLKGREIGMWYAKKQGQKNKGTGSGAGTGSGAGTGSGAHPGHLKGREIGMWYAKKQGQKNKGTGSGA
Experiment: EMSA; EMSA: DNA annealed in 200 mM Tris pH 7.4, 100 mM KCl, 1 mM EDTA; binding 10 min at 25 C, native PAGE; smTIRFM: 100 pM tethered DNA, 100-5000 pM protein, buffer
Details: protein: recombinant; tags: N-terminal FLAG-6xHis; label: 5' fluorescein; intramolecular G4, mixed topology
QUANTITY_MEASURED: Kd (nM)

TTAGGGTTAGGGTTAGGGTTTAGGGTTAGGG (structured_DNA) [hTelG4 (EMSA)] :: 558
